target: MCP-1 (Homo sapiens, UniProt P13500); assay: Migration of THP-1 cells towards MCP-1 (Transwell migration assay); type: cell-based; conditions: 10 μg/ml; BKT300 at 78% purity
Sequence (P13500 24-99): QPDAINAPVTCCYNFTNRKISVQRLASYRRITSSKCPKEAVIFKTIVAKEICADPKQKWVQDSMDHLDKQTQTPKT
assay_endpoint: Inhibition of migration of monocytic THP-1 cells towards MCP-1

These solved cases illustrate the format of a correct answer.
# compound, assayed_system, endpoint_value
records = [
    ("CCC/C=C\\C/C=C\\CCCCCCCc1cccc(O)c1C(=O)O", "MCP-1 (Homo sapiens, UniProt P13500)", "partial inhibition"),
    ("CC1(C)CC[C@]2(C(=O)O)CC[C@]3(C)C(=CC[C@@H]4[C@@]5(C)C[C@@H](O)[C@H](O)[C@@](C)(CO)[C@@H]5CC[C@]43C)[C@@H]2C1", "MCP-1 (Homo sapiens, UniProt P13500)", "partial inhibition"),
    ("CCCCCc1cc2cc(O)cc(Oc3c(O)cc(O)cc3CCCCC)c2c(=O)o1", "MCP-1 (Homo sapiens, UniProt P13500)", "no apparent effect"),
    ("CCCCCC=CC=CC(=O)CCCCCCCC(=O)O", "MCP-1 (Homo sapiens, UniProt P13500)", "no apparent effect"),
    ("CC(C)=CCc1c(O[C@@H]2O[C@H](CO)[C@@H](O)[C@H](O)[C@H]2O)cc(O)c2c1O[C@H](c1ccc(O)cc1)CC2=O", "MCP-1 (Homo sapiens, UniProt P13500)", "no apparent effect"),
]

Which Inhibition of migration of monocytic THP-1 cells towards MCP-1 value belongs to Cc1c(O)c(C)c2c(c1O)C(=O)CC(c1ccc(O)c(O)c1)O2 (centres unmarked) ?
partial inhibition

Consider the compound CCCCCCCCC(=O)/C=C/C=C/C(=O)CCCC(=O)O and give its measured Inhibition of migration of monocytic THP-1 cells towards MCP-1.
no apparent effect
